src = paper PMC8149352

Assay method text: Part A: effect of strong CYP3A inducer rifampin on single-dose pamiparib plasma PK (phase 1 DDI study)
Assay type: in vivo, human (patients with advanced solid tumors)
Applied conditions: human, plasma, oral; read-out: pamiparib tmax, median (range)

- Compound: "C[C@]12CCCN1CC1=NNC(=O)c3cc(F)cc4[nH]c2c1c34 [Pamiparib]"
  Tmax: "2 h"

* * *

Assay method text: Part A: effect of strong CYP3A inducer rifampin on single-dose pamiparib plasma PK (phase 1 DDI study)
Type: in vivo, human (patients with advanced solid tumors)
Applied conditions: human, plasma, oral, 60 mg, Part A; pamiparib 60 mg alone, day 1; reference; N = 9; read-out: pamiparib t1/2, median (range) (converted)
Experimental: This was an open-label, parallel-group, phase 1 study consisting of a 2-part core phase and an extension phase. Only results for the core phases are reported herein (Supplementary Fig. 1). […] Pamiparib plasma concentrations were determined using a validated liquid chromatography–mass spectrometry/mass spectrometry method (lower limit of quantification 1.0 ng/mL) at Covance Laboratory Services (Salt Lake City, Utah). […]

- Smiles notation: "C[C@]12CCCN1CC1=NNC(=O)c3cc(F)cc4[nH]c2c1c34"
  Measure unit: "h"
  half-life: 13.4

* * *

Assay method text: Part B: effect of strong CYP3A inhibitor itraconazole on single-dose pamiparib plasma PK (phase 1 DDI study)
Type: in vivo, human (patients with solid tumors)
Applied conditions: human, plasma, oral, 20 mg, pamiparib 20 mg alone, day 1, reference, N = 12, read-out: pamiparib t1/2, median (range) (converted)
Value type: half-life

- Smiles notation: "C[C@]12CCCN1CC1=NNC(=O)c3cc(F)cc4[nH]c2c1c34"
  Result value: "9.3 h"

* * *

Assay method text: Part A: effect of strong CYP3A inducer rifampin on single-dose pamiparib plasma PK (phase 1 DDI study)
Type: in vivo, human (patients with advanced solid tumors)
Applied conditions: human, plasma, oral, Part A; pamiparib 60 mg day 10 with rifampin 600 mg QD; test; N = 11; read-out: pamiparib t1/2, median (range) (converted)

- Smiles notation: "C[C@]12CCCN1CC1=NNC(=O)c3cc(F)cc4[nH]c2c1c34"
  half-life [h]: 7.7

* * *

Assay method text: Part B: effect of strong CYP3A inhibitor itraconazole on single-dose pamiparib plasma PK (phase 1 DDI study)
Type: in vivo, human (patients with solid tumors)
Applied conditions: human, plasma, oral, pamiparib 20 mg day 7 with itraconazole 200 mg QD, test, N = 12, read-out: pamiparib AUC0-tlast, GLSM (% CV)
Method: Part B of the core phase assessed the effect of the strong CYP3A inhibitor itraconazole on the PK of pamiparib in patients with solid tumors. […] The safety population included all patients who received at least one dose of pamiparib. […] Plasma PK parameters were calculated from pamiparib concentration–time profiles using standard noncompartmental methods. PK parameters were calculated using Phoenix WinNonlin v6.4 or higher (Certara, Princeton, NJ, USA). […]

- Smiles notation: "C[C@]12CCCN1CC1=NNC(=O)c3cc(F)cc4[nH]c2c1c34"
  Measure unit: "µg·h/mL"
  AUC(0-t): 7.79
